# experimental target: T1, ZFP SBS#697 (synthetic)
# T1 chain: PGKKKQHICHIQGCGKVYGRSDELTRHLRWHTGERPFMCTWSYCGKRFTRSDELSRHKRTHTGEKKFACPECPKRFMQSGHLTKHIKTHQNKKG
# test method notes: EMSA
# measurement context: tags: MBP fusion
result type: pKd
Note: pKd values are expressed as the negative base-10 logarithm of concentration in M.

I have this binder here, TGAGCGGCGG (dsDNA) DNA 1: TGAGCGGCGG DNA 2: CCGCCGCTCA , and I need its recorded pKd.
6.70
